A collection of compounds and their measured Permeability (individual replicates 1, 2)
System: Caco-2 cells
procedure-summary: Caco-2 A-B permeability assay
Type: in vitro ADME
measurement-setup: A-B, 90 min, pH=7.4
endpoint: Permeability (individual replicates 1, 2)

smiles-notation: CC(C)c1nccn1CC(=O)Nc1ccc(-c2ccccc2)cc1
endpoint-value: 18.5 10^−6 cm/s
//
smiles-notation: Cc1nc2c(c(N3CCCN(Cc4ccccc4)CC3)n1)CCCC2
endpoint-value: 45.2 10^−6 cm/s
//
smiles-notation: O=C(Cn1cnc2c1CCCC2)Nc1ccc(-c2ccccc2)cc1
endpoint-value: 12.1 10^−6 cm/s
//
smiles-notation: CC(C)(C)Sc1ccc(NC(=O)Cn2ccnc2)cc1
endpoint-value: 41.7 10^−6 cm/s

====

Tested on: wp2[pKM101]+wp2 uvrA mixed 1:2
procedure-summary: Ames Test, E. coli
measurement-setup: 50 μM (row printed 100; conc. column shifted)
# strict inequality: Fold increase (over baseline) < 0.8 yields fulfilled, everything else yields not fulfilled

smiles-notation: CC(C)(C)Sc1ccc(NC(=O)Cn2ccnc2)cc1
class-assignment: not fulfilled

smiles-notation: O=C(Cn1ccnc1-c1ccccn1)Nc1ccc(-c2ccccc2)cc1
class-assignment: fulfilled

smiles-notation: Cc1nc2c(c(N3CCCN(Cc4ccccc4)CC3)n1)CCCC2
class-assignment: not fulfilled

smiles-notation: CC(C)c1nccn1CC(=O)Nc1ccc(-c2ccccc2)cc1
class-assignment: fulfilled

smiles-notation: O=C(Cn1cnc2c1CCCC2)Nc1ccc(-c2ccccc2)cc1
class-assignment: fulfilled

====

A collection of molecules and their measured Fold increase (over baseline)
System: TA 1537
procedure-summary: Ames Test, strain TA 1537
measurement-setup: TA 1537, 100 μM (row printed 200; conc. column shifted)

smiles-notation: CC(C)c1nccn1CC(=O)Nc1ccc(-c2ccccc2)cc1
Fold increase (over baseline): 0.45
//
smiles-notation: Cc1nc2c(c(N3CCCN(Cc4ccccc4)CC3)n1)CCCC2
Fold increase (over baseline): 0
//
smiles-notation: O=C(Cn1ccnc1-c1ccccn1)Nc1ccc(-c2ccccc2)cc1
Fold increase (over baseline): 0
//
smiles-notation: CC(C)(C)Sc1ccc(NC(=O)Cn2ccnc2)cc1
Fold increase (over baseline): 0.23
//
smiles-notation: O=C(Cn1cnc2c1CCCC2)Nc1ccc(-c2ccccc2)cc1
Fold increase (over baseline): 0.45

====

A collection of compounds and their measured pEC50
system: UniProt:O60260
Sequence (O60260 whole entry): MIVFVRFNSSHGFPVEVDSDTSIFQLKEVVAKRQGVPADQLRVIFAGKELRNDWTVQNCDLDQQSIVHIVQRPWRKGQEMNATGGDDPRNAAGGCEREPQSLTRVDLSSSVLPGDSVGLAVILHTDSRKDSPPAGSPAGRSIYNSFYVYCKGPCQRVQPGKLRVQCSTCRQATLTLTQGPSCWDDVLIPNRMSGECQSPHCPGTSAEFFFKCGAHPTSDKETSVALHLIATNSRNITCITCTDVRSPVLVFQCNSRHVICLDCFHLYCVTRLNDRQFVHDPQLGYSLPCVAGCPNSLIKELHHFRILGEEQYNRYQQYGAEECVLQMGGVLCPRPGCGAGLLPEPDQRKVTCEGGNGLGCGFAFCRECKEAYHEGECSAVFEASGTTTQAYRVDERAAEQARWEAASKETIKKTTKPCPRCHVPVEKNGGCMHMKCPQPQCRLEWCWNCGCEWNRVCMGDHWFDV
procedure-summary: Primary HCI assay of EGFP-Parkin translocation to mitochondria
measurement-setup: primary assay screen, Parkin translocation to mitochondria
pEC50: −log10 of the molar value.

compound: c1ccc(CN2CCCN(c3ncnc4ncccc34)CC2)cc1 [Compound 46]
pEC50: 6.69
--
compound: O=C(Cn1ccnc1)Nc1nc(-c2ccccc2)co1 [Compound 13]
pEC50: 5.30
--
compound: Cc1cc(NC(=O)Cn2cnc3c2CCCC3)ccc1-c1ccncc1 [Compound 28]
pEC50: 6.87
--
compound: CC(C)Cc1ccc(NC(=O)Cn2ccnc2)cc1 [Compound 17]
pEC50: 5.30
--
compound: O=C(Cn1ccnc1)Nc1ccc(Oc2ccccc2)cc1 [Compound 14]
pEC50: 5.30
--
compound: O=C(Cn1ccnc1-c1ccccc1)Nc1ccc(-c2ccccc2)cc1 [Compound 29]
pEC50: 5.70
--
compound: Cc1cc(NC(=O)Cn2ccnc2)ccc1-c1ccccc1 [Compound 30]
pEC50: 5.30
--
compound: O=C(Cn1ccnc1)Nc1ccc(COC2CCCC2)cc1 [Compound 15]
pEC50: 5.30
--
compound: N#Cc1ccc(Oc2ccc(NC(=O)Cn3ccnc3)cc2)cc1 [Compound 16]
pEC50: 5.30
--
compound: O=C(Cn1ccnc1-c1ccncc1)Nc1ccc(-c2ccccc2)cc1 [Compound 11]
pEC50: 5.30
--
compound: O=C(Cn1cnc2c1CCCC2)Nc1ccc(-c2ccccc2)cn1 [Compound 22]
pEC50: 6.61
--
compound: Cc1nc2c(c(N3CCCN(Cc4cccs4)CC3)n1)CCCC2 [Compound 43]
pEC50: 6.55
--
compound: O=C(Cn1ccnc1)Nc1ccc(SC2CCCC2)cc1 [Compound 18]
pEC50: 5.30
--
compound: Cc1nccc(-c2ccc(NC(=O)Cn3cnc4c3CCCC4)cc2)n1 [Compound 24]
pEC50: 6.72
--
compound: Cc1nc(NC(=O)Cn2cnc3c2CCCC3)ccc1-c1ccccc1 [Compound 5]
pEC50: 7.20
--
compound: CC(C)(C)Sc1ccc(NC(=O)Cn2ccnc2)cc1 [Compound 3]
pEC50: 6.39
--
compound: O=C(Cc1ccncc1)Nc1ccc(-c2ccccc2)cc1 [Compound 20]
pEC50: 5.00
--
compound: CC(C)c1nccn1CC(=O)Nc1ccc(-c2ccccc2)cc1 [Compound 2]
pEC50: 6.26
--
compound: O=C(Cn1ccnc1)Nc1ccc(OCC2CCCCC2)cc1 [Compound 8]
pEC50: 5.30
--
compound: O=C(Cn1ccnc1)Nc1ccc(-c2ccccc2)c(Cl)c1 [Compound 6]
pEC50: 5.70
--
compound: O=C(Cn1cnc2c1CCCC2)Nc1ccc(-c2ccccn2)cc1 [Compound 23]
pEC50: 6.57
